- System: PPARg:RXRa IVT, anti-PPARg (NR concentration 270 nM, RXRa partner concentration 90 nM)
- test.protocol: PBM binding z-score (relative to random genomic background probes); higher = stronger binding; sequences stand for … in GC…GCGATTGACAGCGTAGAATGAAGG
reported.metric: PBM binding z-score

sequence.content | reported.metric | assay.value
CCTACTGGGCCATTCAGAGGTCAATGATCATATG | PBM binding z-score | 4.62
AGAATGAGGTTACCAAAGTTCAGGGAAACGCTTG | PBM binding z-score | 4.09
AGAATGAGGTTAAGTTCAGGGAAACAGAATACAT | PBM binding z-score | 3.33
ACTTACGGGTCTACGAGGTTATAGCACGCGTATA | PBM binding z-score | 0.458
TGTCAATGTTCAAAGGTAACGTAAGTATCCACAC | PBM binding z-score | 1.8
CGTCCAAGGTCATAGGAGGTCAATGAAGACAGAT | PBM binding z-score | 5.13
ATATGTAGGTTAAGCGTCATTCAGGTTGGTTCGC | PBM binding z-score | 7.49
CCTTACGGGTCACTCCAGGTCATAGCATCGGAGT | PBM binding z-score | 4.39
TCTAGTGGGTCAAAGGTCACACACTCGAAATGCG | PBM binding z-score | 8.52
ACTTAAGGGTCAACGAGGTTATAGCACGCGTATA | PBM binding z-score | 4.06
CCTACTGGGCCAAAAAGGTCATTGATGCCGATAA | PBM binding z-score | 3.76
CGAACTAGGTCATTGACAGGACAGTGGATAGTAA | PBM binding z-score | 7.98
GCTGCTAGGTCAACTGATGGTCAACTAAAGCTCG | PBM binding z-score | 4.19
GATACAGGGTCAAGGTCAGAGTACGCGTATTGAT | PBM binding z-score | 5.18
CAAACGAGGTCACAGAGGTCAAAGTCCGTGCGTA | PBM binding z-score | 7.63
CCTACTGGTCCAAGGTCATTGATCAGTCAAAGCA | PBM binding z-score | 1.68
CGTCAAAGGTCAGAGAGGTCAGTGAATGCCGAGT | PBM binding z-score | 5.36
GGAACGAGGGCAAAGTTCATAGCATCTGTCGACG | PBM binding z-score | 6.1
CGTCAAAGGTCAACTAAGGTAACGTAAAGCACGC | PBM binding z-score | 5.93
CGTCAAAGGTCAAGGTAACGTAACAGAAAGCAGC | PBM binding z-score | 6.15
CGAACTAGGTCATCCAGGTCAGTGAATACATTGA | PBM binding z-score | 8.34
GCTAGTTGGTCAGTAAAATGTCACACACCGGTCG | PBM binding z-score | 0.672
CGTCAAAGTTCAAGGTCACGTAACAGAAAGCAGC | PBM binding z-score | 4.54
CCTTAGGGGTCACGAGGTTATAGCACGACGAGCG | PBM binding z-score | 6.5
CCTTACGGGTCACTCCAGGTTATATCATCGGAGT | PBM binding z-score | 3.56
CAAACCAGGTCAAAGGTCAAAGTCGAGCCAACCA | PBM binding z-score | 7.43

----------
- Test system: RARg:RXRa (NR concentration 270 nM, RXRa partner concentration 90 nM)
- test.protocol: PBM binding z-score (relative to random genomic background probes); higher = stronger binding; sequences stand for … in GC…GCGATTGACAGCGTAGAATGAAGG

sequence.content | PBM binding z-score
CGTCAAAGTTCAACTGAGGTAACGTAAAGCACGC | 6.11
CTCGAAAGGTCGTGCTCAGATGAGTATACCAAAC | 4.06
TAGCCTAGGTCATGCGGGCCAATATAGTGTCGGC | 3.98
CGAACGAGGTCATGAGTTGATAGCAAATGCCGAT | 6.18
CTATGTAGGTTACGGGGGTCATTCAGTTTGAAAG | 5.91
